The reported measurements were obtained from patent US20030021776.

molecular target: VEGF 1B (synthetic, UniProt P08047); test: EMSA; conditions: tags: MBP fusion (pMal-c2), SP1 backbone
Sequence (P08047 other isoform, or with tags, fused parts or gaps): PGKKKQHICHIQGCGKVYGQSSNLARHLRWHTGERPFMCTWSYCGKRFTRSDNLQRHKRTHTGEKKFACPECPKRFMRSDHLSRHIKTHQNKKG

# Binder, Kd
measured = [
    ("VEGF 1B target (dsDNA) DNA 1: GGGGAGGAT DNA 2: ATCCTCCCC", "2 nM"),
]
